# Tested on: HepG2
# protocolDescription: cytotoxicity call (relative viability < 0.9)
# conditionInfo: 10 µM
About 3,300 (8.5%) of roughly 39,000 compounds were called active. The list comes from a sample in which actives are over-represented; it also holds close analogues and randomly drawn compounds.
Please answer using one outcome listed in active, inactive

Request: Outcome logged for CCOC(=O)/C(C#N)=C1/C=CN(C)C=N1 in this assay:
Result: active

Request: Outcome logged for CO[C@@H]1CN(C)C(=O)c2ccc(NS(C)(=O)=O)cc2OC[C@@H](C)N(C(=O)C2CCCCC2)C[C@H]1C in this assay:
Result: inactive

Request: Outcome logged for Cc1ccc(S(=O)(=O)Nc2ccc3c(c2)C(=O)N([C@H](C)CO)C[C@H](C)[C@@H](CN(C)Cc2ccc(Cl)c(Cl)c2)OCCCC[C@H](C)O3)cc1 in this assay:
Result: inactive

Request: Outcome logged for COCCNC(=O)C[C@H]1C[C@@H]2c3cc(NC(=O)Nc4ccc(C(F)(F)F)cc4)ccc3O[C@@H]2[C@H](CO)O1 in this assay:
Result: inactive

Request: Outcome logged for CN(C)C(=O)C[C@H]1CC[C@H]2[C@@H](COC[C@H](O)CN2S(=O)(=O)c2ccccc2)O1 in this assay:
Result: inactive

Request: Outcome logged for C#CC[C@H](c1nc2cc(Cl)ccc2c(=O)n1Nc1ccccc1)N(CCCN)C(=O)c1cccc(Cl)c1F in this assay:
Result: active

Request: Outcome logged for C[C@@H]1CN([C@@H](C)CO)C(=O)c2cc(-c3ccc(C#N)cc3)cnc2O[C@H]1CN(C)C(=O)Nc1ccc(C(F)(F)F)cc1 in this assay:
Result: inactive

Request: Outcome logged for Cc1ccc(S(=O)(=O)Nc2ccc3c(c2)C(=O)N([C@@H](C)CO)C[C@H](C)[C@@H](CN(C)Cc2ccc(Cl)c(Cl)c2)OCCCC[C@@H](C)O3)cc1 in this assay:
Result: active

Request: Outcome logged for Cc1noc(C)c1S(=O)(=O)Nc1cccc2c1O[C@@H](CN(C)C(=O)Nc1ccccc1)[C@@H](C)CN([C@H](C)CO)C2=O in this assay:
Result: inactive

Request: Outcome logged for Cc1ccc(S(=O)(=O)Nc2ccc3c(c2)C(=O)N([C@@H](C)CO)C[C@H](C)[C@@H](CN(C)C(=O)Nc2cccc4ccccc24)O3)cc1 in this assay:
Result: inactive

Request: Outcome logged for Cc1noc(C)c1S(=O)(=O)Nc1ccc2c(c1)CC(=O)N([C@H](C)CO)C[C@H](C)[C@@H](CN(C)Cc1ccccc1)O2 in this assay:
Result: inactive

Request: Outcome logged for O=C(NC1CCCCC1)[C@@H]1C(c2ccc(Cl)cc2)=C(S(=O)(=O)c2ccccc2)C(=O)N1Cc1ccc(-c2ccccc2)cc1 in this assay:
Result: inactive

Request: Outcome logged for CNC(=O)C[C@H]1CC[C@@H]2[C@H](COc3ccc(NC(=O)c4ccc(C(F)(F)F)cc4)cc3C(=O)N2C)O1 in this assay:
Result: inactive

Request: Outcome logged for C[C@@H]1CCCCO[C@@H](CN(C)S(=O)(=O)c2ccc(Cl)cc2)[C@@H](C)CN([C@@H](C)CO)C(=O)c2cc(NS(=O)(=O)c3ccccc3)ccc2O1 in this assay:
Result: inactive

Request: Outcome logged for Cc1ccc(S(=O)(=O)Nc2ccc3c(c2)C(=O)N([C@H](C)CO)C[C@@H](C)[C@H](CN(C)C(=O)Nc2cccc4ccccc24)O3)cc1 in this assay:
Result: active

Request: Outcome logged for C[C@H](CO)N1C[C@H](C)[C@@H](CN(C)S(=O)(=O)c2ccccc2)Oc2c(NC(=O)C3CC3)cccc2C1=O in this assay:
Result: inactive

Request: Outcome logged for NNC(=O)Cc1nc2ccccc2[nH]1 in this assay:
Result: inactive

Request: Outcome logged for Cc1noc(C)c1S(=O)(=O)Nc1ccc2c(c1)C(=O)N([C@@H](C)CO)C[C@@H](C)[C@@H](CN(C)C(=O)Nc1ccccc1)OCCCC[C@@H](C)O2 in this assay:
Result: inactive

// provenance: the antibiotic and cytotoxicity screens of Wong et al. (2023)
